Tested on: PC-3 prostate
Test: NCI-60 one-dose screen, 48 h (100 = growth as untreated, 0 = no growth, -100 = all killed)
Settings: 10 µM
About 83,000 compounds went through this panel and 20% of them were active in at least one assay; those are over-represented in the sample as a whole.

compound | growth, %
N#Cc1ncc(-c2cc(F)ccc2F)c(NC2CCCCCC2)n1 | 60.7
O=C(N/N=C\c1cc(Cl)ccc1O)c1ccncc1 | 61
COc1ccc(-c2nnc(SCC(=O)c3ccccc3)o2)cc1 | 97.1
CCN(CC)CCn1c(=N)n(CC(O)c2ccc(Cl)c(Cl)c2)c2ccccc21 (stereo unspecified) | 80.8
CC(=O)OC1Oc2ccccc2-c2oc(=O)c(-c3cc(=O)oc4cc(O)ccc34)cc21 (stereo unspecified) | 75.9
O=[N+]([O-])c1ccc(Br)o1 | 98.8
Nc1cc(O)cc(O)c1 | 96.6
Cc1ccc(C)c2c1sc1nc3n[nH]c(N)c3c(=N)n12 | 85.7
COc1cc(C2CC(=O)Nc3c2c(C)nn3-c2nc3ccccc3[nH]2)cc(OC)c1O (stereo unspecified) | 68.1
CCOC(=O)c1c(C)n(-c2ccc(Cl)cc2)c2ccc(OC(=O)/C=C/c3ccccc3)cc12 | 67.7
CC(=O)Oc1c(C)c(C)c2c(c1C)CCC(C)(CC(=O)OCCCCCCCCCCC[P+](c1ccccc1)(c1ccccc1)c1ccccc1)O2 (stereo unspecified) | -51

###

Test system: LOX IMVI melanoma
Test: NCI-60 one-dose screen, 48 h (100 = growth as untreated, 0 = no growth, -100 = all killed)
Details: 10 µM
About 83,000 compounds went through this panel and 20% of them were active in at least one assay; those are over-represented in the sample as a whole.
Output condition met for growth not less than 60%; output condition not met otherwise.

molecule | group_label
O=C(Nc1ccc(OCc2nnc(-c3ccccc3)o2)c(F)c1)Nc1ccc(Cl)c(Cl)c1 | condition not met
COc1ccc2c(=O)cc(C(Cl)(Cl)Cl)oc2c1 | condition not met
CCn1nc(-c2ccccn2)c2cccnc2c1=S | condition met
Fc1ccc(Nc2ccnc(N3CCN(c4ccnc5cc(Cl)ccc45)CC3)n2)cc1 | condition not met
Nc1ccc2c(c1)Cc1cc(N)c(Cl)cc1-2 | condition met
COc1ccc2oc(=O)cc(C(c3ccc[nH]3)c3ccc[nH]3)c2c1 | condition not met
CC(=O)n1nc(C(=O)OC(C)(C)C)c2cc(F)c(F)cc21 | condition met
CCNC1(NC#N)CCCCC1 | condition met
Nc1nc2c(ncn2C2OC3COP(=O)(O)OC4C(COP(=O)(O)OC2C3O)OC(n2cnc3c(N)ncnc32)C4O)c(=O)[nH]1 (configuration not stated) | condition met
N#Cc1ncc(-c2cc(F)ccc2F)c(NC2CCCCCC2)n1 | condition met
CCOC(=O)CSC(=S)SCC(=O)OCC | condition met
COc1cccc(C(=O)NNc2nc(N3CCN(C4CCCCC4)CC3)nc(N3CCN(C(c4ccccc4)c4ccccc4)CC3)n2)c1 | condition not met
Cn1c(=O)c2[nH]c(C(O)c3ccc(Cl)cc3)nc2n(C)c1=O (configuration not stated) | condition met
C(=C\c1nc2ccccc2s1)/c1ccc(N2CCOCC2)s1 | condition not met
CCc1cc2n(n1)-c1ncc(C(=O)OC)cc1Oc1ccccc1-2 | condition met
Cc1cc(C)c2c(Nc3ncnc4c3sc3nc(C)cc(C)c34)n[nH]c2n1 | condition met

###

System: MDA-MB-435 melanoma
Assay: NCI-60 one-dose screen, 48 h
Settings: 10 µM
This is part of a sample that, as a whole, favours compounds with a hit. Of some 83,000 tested, about 20% had one in any assay. The source made the active and inactive calls. The calls were made as follows: active = growth percent below 10; inactive = the rest.
Possible outcomes: active, inactive

compound | group_label
Cc1ccc(S(=O)(=O)Nc2cccc3[nH]c(C(F)(F)F)nc23)cc1 | active
Cc1ccc2nc(-c3ccc(OCC(=O)N=Nc4c(O)[nH]c5ccccc45)cc3)[nH]c2c1 | inactive
CC(C)/C=N/NC(N)=S | inactive
O=S(=O)(NCCO)c1ccc(OCCOc2ccc(S(=O)(=O)NCCO)cc2)cc1 | inactive
COc1ccc(C2=Cc3ccc(OC(C)=O)cc3OC2)cc1 | inactive
CC(C)(C)CC(C)(C)c1ccc(O)c(Cc2ccc(Cl)cc2Cl)c1 | active
O=C(c1ccccc1)C(Nc1ccccc1)c1ccccc1 (stereo unspecified) | inactive
N#Cc1c(-c2ccccc2)nc(SCC(=O)N2CCOCC2)[nH]c1=O | inactive
Cn1cnc([N+](=O)[O-])c1/C=C1\Oc2ccc(Cl)cc2C1=O | inactive
CCCCCN(CCCCC)C(C)C(O)c1ccc2cc(Cl)c3ccccc3c2c1 (stereo unspecified) | inactive
COc1cc(/C=C2\C(=O)Nc3cc(C)c(O)cc32)cc(OC)c1OC | active
CNC(=O)c1cc(Oc2ccc(NC(=O)Nc3ccc(Cl)c(C(C)(C)C)c3)c(F)c2)ccn1 | inactive
O=C(N/N=C/c1ccccc1O)c1ccccc1 | inactive
CC(=O)OC1Oc2ccccc2-c2oc(=O)c(-c3ccc(F)cc3)cc21 (stereo unspecified) | inactive
CN(C)c1ccc2c(c1)OC(N)=C(C#N)C2c1ccc2c(c1)CCCN2C (stereo unspecified) | active
COc1ccc(-c2cc(/C=C3\C(=O)Nc4cc(Cl)ccc43)[nH]n2)cc1 | active
O=C1/C(=C/c2ccc([N+](=O)[O-])s2)Oc2ccc(Cl)cc21 | active
COc1ccc(-c2oncc2-c2cc(OC)c3c(c2)OCO3)cc1 | active
Fc1ccc(-c2cc(C(Cl)Cl)no2)cc1 | inactive
C#Cc1ccc(-n2c(/C=C/c3cc(OC)c(OC)c(OC)c3)nc3ncccc3c2=O)cc1 | active
CCCCCCCCCCN=C(c1ccc(N(C)C)cc1)c1ccc(N(C)C)cc1 | active
FC(F)(F)c1ccc(-c2ncc(-c3ccc(C(F)(F)F)cc3)c(NCc3cc(C(F)(F)F)cc(C(F)(F)F)c3)n2)cc1 | inactive
COc1ccc(-c2ccc(-c3ccc(C(=N)N)c(F)c3)s2)cc1 | active
COc1ccc(S(=O)(=O)Nc2ccc(OCc3nnc(-c4ccc(Cl)cc4)o3)c(F)c2)cc1 | inactive
COc1ccc(-c2nsc3c2NC(=O)CC3c2cccc(Cl)c2)cc1 (stereo unspecified) | active
CCOC(=O)Cn1nnc(-c2ccc(OCc3ccccc3F)cc2)n1 | active

###

Tested on: A549/ATCC NSCLC
Assay: NCI-60 one-dose screen, 48 h (100 = growth as untreated, 0 = no growth, -100 = all killed)
Settings: 10 µM
Protocol: Growth inhibition of the A549/ATCC human Non-Small Cell Lung tumor cell line is measured as a screen for anti-cancer activity. Cells are grown in 96 well plates and exposed to the test compound for 48 hours. Compounds are tested at a single concentration, which is 10^-5 M for most compounds. The reported endpoint is percent growth (GI% or GIPRCNT), where numbers from 0 - 100% represent growth inhibition, and numbers from -100% - 0 represent cell death. […]
This is part of a sample that, as a whole, favours compounds with a hit. Of some 83,000 tested, about 20% had one in any assay.
Each item that follows carries a reported growth.

compound | growth, %
COc1ccc(/C=C(\c2cc(OC)c(OC)c(OC)c2)c2nnc(-c3cccs3)o2)cc1 | 77.5
Cc1nn2c(/C=C3/C(=O)Nc4ccc(Cl)cc43)c(-c3ccccc3)nc2s1 | 24.2
CCCN(CCC)CCCNC(=O)c1cc2c(-c3ccc(OC)c(OC)c3)nn(C)c2s1 | 9.14
CN(C)c1ccc2c(c1)OC(N)=C(C#N)C2c1ccc2c(c1)CCCN2C (stereo unspecified) | 27.5
C/C(=N\NC(=O)c1sc(=S)n(C)c1N)c1cc2ccccc2o1 | 45.4
Brc1ccc(-c2cn3ccnc3c(-c3ccc(Br)cc3)n2)cc1 | 31.9
COc1cc(CSc2nc3ccc(Cl)cc3c(=O)n2Cc2ccccc2)cc(OC)c1OC | 42.2
COc1cc(Nc2ccnc(N3CCN(c4ccnc5cc(Cl)ccc45)CC3)n2)cc(OC)c1 | 7.47
CC(=O)Nc1ccc(Sc2ccc(NC(C)=O)cc2)cc1 | 80
CC(C)/C(=N/O)c1ccccc1 | 111
COc1cc(OC)cc(-c2n/c(=C\c3c(O)[nH]c4ccc(OC)cc34)cc3c2=Nc2ccccc2-3)c1 | 52.1
CCOC(=O)c1sc(NC(=O)c2cc(OC)c(OC)c(OC)c2)nc1C | 101
O=C1/C(=C/c2ccc(O)cc2)Oc2ccc(Cl)cc21 | 79.7
Nc1nc(SCC#CCCl)c2[nH]cnc2n1 | 54.5
N=C(N)c1ccc(-c2ccc(-c3cccs3)s2)nc1 | 2.67
Cc1nc(Nc2nc3ccccc3o2)nc(-c2cccc([N+](=O)[O-])c2)c1C(=O)Nc1ccc(F)c(Cl)c1 | 5.85
CC(C)c1[nH]nc2c(NCc3ccc(-c4ccccn4)cc3)nc(SCCN)nc12 | 6.81
CCCCCCCCCCCCCCCC(=O)N1CCN(C)CC1 | 95.5
COc1ccc(C(=O)/C=C/c2cc(-c3ccc(OC)c(OC)c3)n[nH]2)cc1OC | -12.8
CCOC(=O)c1sc(Nc2ncccn2)nc1-c1ccccn1 | 84.3
CCN(CC)CCn1c(=N)n(CC(O)c2ccc(Cl)c(Cl)c2)c2ccccc21 (stereo unspecified) | 89.6
